- Test system: Yap1 mRNA
- Protocol: Dose-dependent inhibition of human Yap1 in SNU-449 cells (Example 9, RTS36584)
- Type: cell-based
- Particulars: 500.0 nM, free uptake, approximately 48 hours
Strand notation (5' to 3'): a small letter for the sugar, then the base; units joined by * are phosphorothioate-linked, units joined directly phosphodiester-linked; [ ] holds rarer units or linkages, { } end groups; capitals alone tell only the bases. e = 2'-O-(2-methoxyethyl) (MOE); k = constrained ethyl (cEt); [5mC] = 5-methylcytosine; d = 2'-deoxy (DNA); m = 2'-O-methyl
# Lookup of reported % UTC (Yap1 mRNA) keyed by entry
Write the answer as a number in % UTC, unit excluded.

Worked cases, % UTC (Yap1 mRNA) given:
INSERT INTO assay_data (substance, quantity_kind, obs_value) VALUES
  ('1200796 (kT*kT*kA*dG*dA*mG*dT*dA*dT*dG*dT*dG*dG*k[5mC]*kA*kA; antisense) [compound 1200796]', '% UTC (Yap1 mRNA)', 25),
  ('1198354 (kA*kA*kG*dT*dG*dT*dA*dT*dG*dT*d[5mC]*dA*kG*eA*kA*eG) [compound 1198354]', '% UTC (Yap1 mRNA)', 5),
  ('1198347 (kG*kT*kA*dA*dT*dA*dT*dT*dG*d[5mC]*dA*dA*kT*e[5mC]*kT*eG) [compound 1198347]', '% UTC (Yap1 mRNA)', 24),
  ('1200789 (G_{ks}G_{ks}A_{ks}A_{ds}A_{ds}U_{ys}T_{ds}G_{ds}T_{ds}^{m}C_{ds}T_{ds}^{m}C_{ds}A_{ds}T_{ks}G_{ks}^{m}C_{k}; as printed in the source, key not given here) [compound 1200789]', '% UTC (Yap1 mRNA)', 15),
  ('1200803 (kG*kG*kT*dA*dT*mA*dA*d[5mC]*dT*dG*dG*dG*d[5mC]*kA*kA*kA; antisense) [compound 1200803]', '% UTC (Yap1 mRNA)', 34);

# input Form field: reported % UTC (Yap1 mRNA) of 1009325 (kA*kG*kA*dG*dT*dA*dT*dG*dT*dG*dG*d[5mC]*dA*kA*kT*kA; antisense) [compound 1009325]
# output 16

###

# Lookup of reported YAP1 (% UTC) keyed by entry
- Tested on: Yap1 mRNA
- Protocol: Antisense inhibition of human Yap1 in SNU-449 cells by modified oligonucleotides, single dose (Example 5, RTS36584)
- Format: cell-based
- Particulars: Table 43 experiment; SNU-449 cells, 10,000 cells per well, free uptake, 2,000 nM, approximately 48 hours; RTS36584; Yap1 mRNA normalized to RIBOGREEN, relative to untreated control cells
Strand notation (5' to 3'): a small letter for the sugar, then the base; units joined by * are phosphorothioate-linked, units joined directly phosphodiester-linked; [ ] holds rarer units or linkages, { } end groups; capitals alone tell only the bases. e = 2'-O-(2-methoxyethyl) (MOE); k = constrained ethyl (cEt); [5mC] = 5-methylcytosine; d = 2'-deoxy (DNA)
Write the answer as a number in % UTC, unit excluded.

INSERT INTO measurements (substance, quantity_kind, unit_name, obs_value) VALUES
  ('1198241 (kT*kT*dT*dA*dG*dG*dA*dT*dG*d[5mC]*dA*eT*eG*eG*kT*kT; antisense) [Compound 1198241]', 'YAP1 (% UTC)', '% UTC', 32);

Consider the additional substance presented here.
# input Form field: reported YAP1 (% UTC) of 1198460 (antisense kG*kA*dA*dA*dT*dT*dG*dT*d[5mC]*dT*d[5mC]*eA*kT*eG*k[5mC]*e[5mC]) [Compound 1198460]
# output 17
